Target: Adenosine receptor A2a (Homo sapiens)
Test: Displacement of [3H]-ZM241385 from human adenosine A2A receptor expressed in HEK293 cell membranes at 0.1 uM after 90 mins relative to control
ASSAY READOUT: inhibition (%)

{"columns": ["SMILES", "inhibition / %"],
 "data": [
  ["CCCn1c(=O)[nH]c2nc(-c3cnn(CC#Cc4ccc(F)cc4)c3)[nH]c2c1=O", 55],
  ["CCCn1c(=O)c2[nH]c(-c3cnn(CC#Cc4ccc(C)cc4)c3)nc2n(CCC)c1=O", 33],
  ["CCCn1c(=O)c2[nH]c(-c3cnn(CC#CCN(CC)CC)c3)nc2n(CCC)c1=O", 59],
  ["CCCn1c(=O)c2[nH]c(-c3cnn(CC#Cc4ccc(C#N)cc4)c3)nc2n(CCC)c1=O", 29],
  ["CCCn1c(=O)[nH]c2nc(-c3cnn(CC#Cc4cccc(F)c4)c3)[nH]c2c1=O", 60],
  ["CCCn1c(=O)c2[nH]c(-c3cnn(CC#CCN4CCN(C)CC4)c3)nc2n(CCC)c1=O", 73],
  ["CCCn1c(=O)[nH]c2nc(-c3cnn(CC#Cc4cccc(C(F)(F)F)c4)c3)[nH]c2c1=O", 39],
  ["CCCn1c(=O)[nH]c2nc(-c3cnn(CC#Cc4ccc(C(F)(F)F)cc4)c3)[nH]c2c1=O", 39]
]}

(a) CCCn1c(=O)c2[nH]c(-c3cnn(CC#Cc4cccc(C#N)c4)c3)nc2n(CCC)c1=O
(b) CCCn1c(=O)c2[nH]c(-c3cnn(CC#Cc4cccc(F)c4)c3)nc2n(CC)c1=O
(c) CCCn1c(=O)c2[nH]c(-c3cnn(CC#Cc4ccccc4C(F)(F)F)c3)nc2n(CCC)c1=O
(d) CCCn1c(=O)c2[nH]c(-c3cnn(CC#Cc4ccc(C(=O)OCC)cc4)c3)nc2n(CCC)c1=O
(e) CCCn1c(=O)c2[nH]c(-c3cnn(CC#CCN4CCN(c5cccc(C(F)(F)F)c5)CC4)c3)nc2n(CCC)c1=O
Sequence the entries by inhibition, beginning with the highest number. Reply with the labels, ordered as the question asks. a, b, c, d, e

(I) CCCn1c(=O)c2[nH]c(-c3cnn(CC#CCN4CCCC4)c3)nc2n(CCC)c1=O
(II) CCCn1c(=O)c2[nH]c(-c3cnn(CC#Cc4ccc(C(=O)O)cc4)c3)nc2n(CCC)c1=O
(III) CCCn1c(=O)c2[nH]c(-c3cnn(CC#Cc4cccc(OC(F)(F)F)c4)c3)nc2n(CCC)c1=O
Sequence the entries by inhibition, beginning with the highest number. Reply with the labels, ordered as the question asks. I, II, III
(I: 67%, II: 44%, III: 27%)

(I) CCCn1c(=O)c2[nH]c(-c3cnn(CC#Cc4cccc(OC)c4)c3)nc2n(CCC)c1=O
(II) CCCn1c(=O)c2[nH]c(-c3cnn(CC#CCN4CCOCC4)c3)nc2n(CCC)c1=O
(III) CCCn1c(=O)c2[nH]c(-c3cnn(CC#Cc4ccc(C(F)(F)F)cc4)c3)nc2n(CC)c1=O
Sequence the entries by inhibition, beginning with the highest number. Reply with the labels, ordered as the question asks. I, II, III
(I: 74%, II: 39%, III: 21%)

====

Experiment: Cmax in C57BL/6J mouse at 10 mg/kg, po
Type: ADME, organism-based
Parameters: dose 10 mg/kg, route oral
Conditions: in vivo
ASSAY READOUT: Cmax (µM)

{"columns": ["SMILES", "Cmax / µM"],
 "data": [
  ["CCCn1c(=O)c2[nH]c(-c3cnn(CC#Cc4cccc(OC(F)(F)F)c4)c3)nc2n(CCC)c1=O", 6.6]
]}

(P) CCCn1c(=O)c2[nH]c(-c3cnn(CC#Cc4cccc(OC(F)(F)F)c4)c3)nc2n(CC)c1=O
(Q) CCCn1c(=O)c2[nH]c(-c3cnn(CC#Cc4cccc(C(=O)O)c4)c3)nc2n(CCC)c1=O
Task for the reader: decide whether P or Q has the larger Cmax. # reply format: chosen label P
(P: 13 µM, Q: 1.9 µM)
